System: SNB-75 CNS
Assay: NCI-60 one-dose screen, 48 h (100 = growth as untreated, 0 = no growth, -100 = all killed)
Conditions: 10 µM
Compounds without any hit were thinned out: in the full panel of roughly 83,000, 20% have a hit.
measure: growth (%)
All answers are understood in %, so give the number only.

Record excerpt, results attached:
[
  {
    "molecule": "O=C(O)CCCCCCCCCCN1C(=O)/C(=C/c2cnc(-c3ccccc3)s2)SC1=S",
    "target or test system": "SNB-75 CNS",
    "unit annotation": "%",
    "growth": 124
  },
  {
    "molecule": "Cc1ccc(/C=C/C(=O)c2ccc(S(=O)(=O)NCCNc3nc(Nc4ccc(F)cc4)nc(N(C)C)n3)cc2)cc1",
    "target or test system": "SNB-75 CNS",
    "unit annotation": "%",
    "growth": 81.3
  },
  {
    "molecule": "C=CC(=O)Nc1nc(-c2cccc(NS(=O)(=O)c3cccc4c(N(C)C)cccc34)c2)cs1",
    "target or test system": "SNB-75 CNS",
    "unit annotation": "%",
    "growth": 5.83
  },
  {
    "molecule": "O=C(CSc1nnc(-c2ccc3nc(-c4ccc(Cl)cc4)[nH]c3c2)o1)Nc1ccc(Br)cc1",
    "target or test system": "SNB-75 CNS",
    "unit annotation": "%",
    "growth": 5.11
  },
  {
    "molecule": "O=C(Nc1ccc(OCC(=O)c2ccccc2)cc1)Nc1ccc(Cl)c(C(F)(F)F)c1",
    "target or test system": "SNB-75 CNS",
    "unit annotation": "%",
    "growth": 3.5
  },
  {
    "molecule": "C=C(C)[C@@H]1CC[C@]2(C)[C@H](CC=C3[C@@H]4CC(C)(C)CC[C@]4(C(=O)N4CCOCC4)CC[C@]32C)[C@@]1(C)CCCN",
    "target or test system": "SNB-75 CNS",
    "unit annotation": "%",
    "growth": -91.2
  }
]

Reported growth ( CN(C)CCNC(=O)OCCCCOc1cc(O)c2c(=O)cc(-c3ccccc3)oc2c1 ) = 103

Reported growth ( CN1CCO/C1=C(/NC(=O)c1ccc(Cl)cc1)[P+](c1ccccc1)(c1ccccc1)c1ccccc1 ) = 91.6

Reported growth ( O=C(CS(=O)(=O)c1oc(-c2ccc(Cl)cc2)nc1S(=O)(=O)c1ccc(Cl)cc1)N1CCOCC1 ) = 54.7

Reported growth ( O=C(Nc1nc2ccc([N+](=O)[O-])cc2s1)Nc1ccccc1I ) = -1.46

Reported growth ( CN(C(=O)c1ccc(C(C)(C)C)cc1)c1sc2c(c1C#N)CCC(=O)C2 ) = 98

Reported growth ( O=C(NO)c1ccc(CNC(=O)[C@H]2Cc3c([nH]c4ccccc34)[C@H](c3ccc(Cl)cc3)N2)cc1 ) = 39.6

Reported growth ( CN1CCN(c2ccc(C(=O)/C=C/c3cc(Br)ccc3F)cc2)CC1 ) = 40.1

Reported growth ( COc1cnc2c(c1)C(=O)c1c-2n(CCCNCCO)c(=O)c2cc(OC)c(OC)cc12 ) = 59.6

Reported growth ( COc1ccc(/C=C/C(=O)c2ccc(NC(=O)CN3C(=O)NC(C)(c4ccccc4)C3=O)cc2)cc1 (stereo unspecified) ) = 96.8
